Listing: solution mAb binding, % of PRLR binding of selected binders
Target: T1, human PRLR (Biacore antigen) (human, UniProt P16471 25-234, limits assumed)
T1 construct: The construct injected over captured antibody is not described (a soluble form is likely); also called huPRLR
T1 sequence: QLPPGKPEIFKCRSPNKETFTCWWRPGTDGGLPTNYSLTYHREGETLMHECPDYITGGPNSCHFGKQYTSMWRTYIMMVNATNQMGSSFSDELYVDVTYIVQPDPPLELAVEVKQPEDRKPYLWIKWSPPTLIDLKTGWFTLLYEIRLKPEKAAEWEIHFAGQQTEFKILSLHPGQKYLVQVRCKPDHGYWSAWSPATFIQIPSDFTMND
Experiment: SPR simultaneous binding; PRLR held by surface mAb Ab40
Procedure: Running buffer was HBS-EP+ (10 mM Hepes, pH7.4, 150 mM NaCl, 3 mM EDTA, 0.05% surfactant). Assay was performed at 12° C. using Biacore T200 and CM5 sensor chips with anti-human IgG (Pierce) amine-coupled in all 4 flow cells to ˜2000 RU. Separate test mAbs were captured in flowcells 2, 3 & 4 (flowcell 1 was reference, no test mAb). All 4 flowcells were then blocked by injection with isotype control mAb at 50 ug/ml. […]
// return numeric value only (unit: %, not printed)

Below: 2 binders and their reported solution mAb binding, % of PRLR binding.
>  <binder>
Ab39 (antibody, human IgG1, kappa, V domains shown, humanized from Ab7; G1; also called Ab4 HC.1a and Ab4 LC.1a) VH: EVQLVQSGAEVKKPGSSVKVSCKASGYTFTSYWIHWVRQAPGQGLEWIGEIDPSDSYTNYNQKFKGRATLTVDKSSSTAYMELSSLRSEDTAVYYCARSFFTNWFAYWGQGTLVTVSS VL: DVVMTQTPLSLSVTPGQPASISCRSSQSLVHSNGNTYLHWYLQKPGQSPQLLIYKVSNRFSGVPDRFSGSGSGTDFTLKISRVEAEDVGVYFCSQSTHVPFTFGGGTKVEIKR

>  <solution mAb binding, % of PRLR binding (%)>
-2

$$$$
>  <binder>
chAb5 (antibody, human IgG1, kappa, V domains shown, chimeric, murine variable and human G1/kappa constant regions) VH: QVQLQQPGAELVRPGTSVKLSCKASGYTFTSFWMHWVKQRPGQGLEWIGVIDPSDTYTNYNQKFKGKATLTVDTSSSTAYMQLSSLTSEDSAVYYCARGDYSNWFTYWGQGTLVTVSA VL: DVVMTQTPLSLPVSLGDQASISCRSSQRLVHSNGNTYLHWYLQKPGQSPKLLIYKVSNRFSGVPDRFSGSGSGTDFTLKISRVEAEDLGVYFCSQSTHVPWTFGGGTKLEIKT

>  <solution mAb binding, % of PRLR binding (%)>
-2

$$$$

What does the record list as solution mAb binding, % of PRLR binding for chAb8 (antibody, human IgG1, kappa, V domains shown, chimeric, murine variable and human G1/kappa constant regions) VH: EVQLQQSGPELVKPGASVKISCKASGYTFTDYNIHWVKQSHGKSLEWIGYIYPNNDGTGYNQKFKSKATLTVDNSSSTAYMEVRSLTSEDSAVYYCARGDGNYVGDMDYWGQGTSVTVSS VL: DIQMTQSPASLSASVGETVTITCRASENIYSYLAWYQQKQGKPPQLLVYNAKTLAEGVPSRFSGGGSGTQFSLKINSLQPEDFGSYYCQHHYATPFTFGSGTKLEIKT ?
-2
